studyTarget: articular cartilage
experimentNotes: Competitive binding of free polypeptide or nanoparticles against phage clone C1-3 on articular cartilage
Parameters: species or system bovine
conditionDetails: polypeptide 50 nM to 10 μM mixed with 10^8 TU/ml phage C1-3; estimated from curve in FIG. 2; read-out: IC50, inhibition of cartilage binding of phage C1-3
propertyLabel: IC50

[in] Quick check: IC50 of WYRGRLC [synthetic polypeptide: insert WYRGRL of clone C1-3 with a cysteine added to the C-terminus] ?
[out] ~200 nM
